TARGET: SARS-CoV-2 3CL protease (Severe acute respiratory syndrome coronavirus 2 (2019-nCoV) (SARS-CoV-2), UniProt P0DTD1)
ENDPOINT_LABEL: Ki (µM)
Report only the number, with the unit µM understood.

Task item: Param item = COc1cccc2[nH]c(C(=O)N[C@@H](CC(C)C)C(=O)N[C@@H](C[C@@H]3CCNC3=O)C(=O)COC(=O)c3ccc(Cl)cc3)cc12 ; retrieve measured Ki.
Reply: 0.0188

Task item: Param item = COc1cccc2[nH]c(C(=O)N[C@@H](CC(C)C)C(=O)N[C@@H](C[C@@H]3CCNC3=O)C(=O)COC(=O)c3ccc(C#N)cc3F)cc12 ; retrieve measured Ki.
Reply: 0.0002

Task item: Param item = COc1cccc2[nH]c(C(=O)N[C@@H](CC(C)C)C(=O)N[C@@H](C[C@@H]3CCNC3=O)C(=O)COC(=O)c3ccccc3)cc12 ; retrieve measured Ki.
Reply: 0.233

Task item: Param item = COc1cccc2[nH]c(C(=O)N[C@@H](CC(C)C)C(=O)N[C@@H](C[C@@H]3CCNC3=O)C(=O)COC(=O)c3c(F)cccc3F)cc12 ; retrieve measured Ki.
Reply: 0.0013

Task item: Param item = COc1cccc(OC)c1C(=O)OCC(=O)[C@H](C[C@@H]1CCNC1=O)NC(=O)[C@H](CC(C)C)NC(=O)c1cc2c(OC)cccc2[nH]1 ; retrieve measured Ki.
Reply: 0.0157

Task item: Param item = COc1ccc(C(=O)OCC(=O)[C@H](C[C@@H]2CCNC2=O)NC(=O)[C@H](CC(C)C)NC(=O)c2cc3c(OC)cccc3[nH]2)cc1 ; retrieve measured Ki.
Reply: 0.0334

---

TARGET: SARS-CoV-2 3CL protease (Severe acute respiratory syndrome coronavirus 2 (2019-nCoV) (SARS-CoV-2))
pKi: −log10 of the molar value.
Lab note: anything with pKi at or over 9 counts as class 1; the rest go in class 0.

Task item: Is pKi at least 9? Consider COc1cccc2[nH]c(C(=O)N[C@@H](CC(C)C)C(=O)N[C@@H](C[C@@H]3CCNC3=O)C(=O)COC(=O)c3ccc(C#N)cc3)cc12
Reply: class 0

Task item: Is pKi at least 9? Consider COc1cccc2[nH]c(C(=O)N[C@@H](CC(C)C)C(=O)N[C@@H](C[C@@H]3CCNC3=O)C(=O)COC(=O)c3ccc(F)cc3)cc12
Reply: class 0

Task item: Is pKi at least 9? Consider COc1cccc2[nH]c(C(=O)N[C@@H](CC(C)C)C(=O)N[C@@H](C[C@@H]3CCNC3=O)C(=O)COC(C)=O)cc12
Reply: class 0

Task item: Is pKi at least 9? Consider COc1cccc2[nH]c(C(=O)N[C@@H](CC(C)C)C(=O)N[C@@H](C[C@@H]3CCNC3=O)C(=O)COC(=O)c3ccc(C)cc3)cc12
Reply: class 0

Task item: Is pKi at least 9? Consider COc1cccc2[nH]c(C(=O)N[C@@H](CC(C)C)C(=O)N[C@@H](C[C@@H]3CCNC3=O)C(=O)COC(=O)c3ccccc3C#N)cc12
Reply: class 1

Task item: Is pKi at least 9? Consider COc1cccc2[nH]c(C(=O)N[C@@H](CC(C)C)C(=O)N[C@@H](C[C@@H]3CCNC3=O)C(=O)COC(=O)c3c(Cl)cccc3Cl)cc12
Reply: class 1

Task item: Is pKi at least 9? Consider COc1cccc2[nH]c(C(=O)N[C@@H](CC(C)C)C(=O)N[C@@H](C[C@@H]3CCNC3=O)C(=O)COC(=O)C(C)(C)C)cc12
Reply: class 0

Task item: Is pKi at least 9? Consider COc1cccc2[nH]c(C(=O)N[C@@H](CC(C)C)C(=O)N[C@@H](C[C@@H]3CCNC3=O)C(=O)COC(=O)c3c(C)cccc3C)cc12
Reply: class 0
